// provenance: PubChem BioAssay (NCI)

# Test system: UO-31 renal
# protocol-text: NCI-60 one-dose screen, 48 h (100 = growth as untreated, 0 = no growth, -100 = all killed)
# condition-set: 10 µM unless noted
About 83,000 compounds went through this panel and 20% of them were active in at least one assay; those are over-represented in the sample as a whole. Activity calls are given as the source filed them. The calls were made as follows: active = growth percent below 10; inactive = the rest.
Listing: growth of selected compounds
assay-endpoint: growth

compound	measured-target	assay-endpoint	result
Cn1ccnc1C(=O)/C=C/c1ccc(C(=O)Nc2ccc(S(F)(F)(F)(F)F)cc2)cc1	UO-31 renal	growth	28.5% (inactive)
COc1cc(NC(=O)c2cccc(-c3cc(=O)c4c(OC)c(OC)c(OC)cc4o3)c2)cc(OC)c1OC	UO-31 renal	growth	20.9% (inactive)
CCCc1cc(=O)oc2c3c(c4c(c12)OC(C)(C)C=C4)O[C@@H](C)[C@H](C)C3=O	UO-31 renal	growth	71.9% (inactive)
CCN(CC)CCOc1ccc(/C(=C(\C)c2ccc(OC)c(F)c2)c2ccc(Cl)cc2)cc1	UO-31 renal	growth	75.6% (inactive)
CCOC(=O)C1=C(C)NC(SCc2nnc(-c3ccc(Cl)cc3)o2)=NC1c1ccc(Cl)cc1Cl (centres undefined)	UO-31 renal	growth	37.2% (inactive)
COc1cccc(/C=C2\COc3ccc(O)cc3C2=O)c1OC	UO-31 renal	growth	58.6% (inactive)
CCCCCCNCc1cc(C(C)(C)C)cc(CNCCCCCC)c1O	UO-31 renal	growth	-80.7% (active)
C[C@]12CCC(=O)C[C@H]1CC[C@@H]1[C@@H]2CC[C@@]2(C)[C@H]1CC[C@]2(O)C(=O)CO	UO-31 renal	growth	91.6% (inactive)
Cc1cc(Cc2cc(C)cc(C(C)(C)C)c2O)c(O)c(C(C)(C)C)c1	UO-31 renal	growth	43% (inactive)

---

# Tested on: NCI-H23 lung
# protocol-text: NCI-60 one-dose screen, 48 h
# condition-set: 10 µM unless noted
Compounds without any hit were thinned out: in the full panel of roughly 83,000, 20% have a hit. Active and inactive are the calls of the source. The calls were made as follows: active = growth percent below 10; inactive = the rest.
Possible outcomes: active, inactive

molecule	assigned-category
CN(C)c1ccc(-c2cc(-c3ccc(Nc4nc(Nc5ccccc5)nc(Nc5ccc(Cl)cc5)n4)cc3)nc(N)n2)cc1	inactive
C[C@]12CCC(=O)C[C@H]1CC[C@@H]1[C@@H]2CC[C@@]2(C)[C@H]1CC[C@]2(O)C(=O)CO	inactive
O=C1N/C(=N/O)S/C1=C/c1cn(-c2ccccc2)nc1-c1ccccc1	inactive
O=C1CSC(c2ccc(O)cc2)N1c1nnc(Cn2cnnc2)o1 (centres undefined)	inactive
N#C/C(=C\c1ccc(Br)cc1)n1nnc2cc(Cl)c(Cl)cc21	inactive
O=c1[nH]c(=O)n(C2CC(O)C(CO)O2)cc1CO (centres undefined)	inactive
Nc1c(-c2nc3ccccc3c(=O)[nH]2)nnn1-c1ccc(Cl)cc1	inactive
O=C(NCCOCCOCCNc1cccc2c1C(=O)N(C1CCCNC1=O)C2=O)c1cc2c(o1)C(=O)c1ccccc1C2=O (centres undefined)	active
O=C1/C(=C/c2ccccc2[N+](=O)[O-])COc2ccc(O)c(O)c21	active

---

# System: TK-10 renal
# protocol-text: NCI-60 one-dose screen, 48 h (100 = growth as untreated, 0 = no growth, -100 = all killed)
# condition-set: 10 µM unless noted
# Experimental: Growth inhibition of the TK-10 human tumor cell line is measured as a screen for anti-cancer activity. Cells are grown in 96 well plates and exposed to the test compound for 48 hours. Compounds are tested at a single concentration, which is 10^-5 M for most compounds. The reported endpoint is percent growth (GI% or GIPRCNT), where numbers from 0 - 100% represent growth inhibition, and numbers from -100% - 0 represent cell death. For example, a value of 40 represents 60% growth inhibition. […]
About 83,000 compounds went through this panel and 20% of them were active in at least one assay; those are over-represented in the sample as a whole.
This listing pairs compounds with measured growth.
assay-endpoint: growth (%)

compound	output-unit	numeric-readout
O=c1[nH]nc(-c2ccc(Cl)cc2)cc1Cc1ccccc1	%	109
CCOC(=O)c1c(C)[nH]c(C(=O)CCC(=O)OC)c1C	%	84.3
Cc1ccc(NSc2ccccc2[N+](=O)[O-])cc1	%	51.7
CC[C@]1(O)C[C@H]2CN(CCc3c([nH]c4ccccc34)[C@@](C(=O)OC)(c3cc4c(cc3OC)N(C=O)[C@H]3[C@@](O)(C(=O)OC)[C@H](OC(C)=O)[C@]5(CC)C=CCN6CC[C@]43[C@@H]65)C2)C1	%	60.8
N=C(N)c1ccc(-c2ccc(-c3ccc(Cl)c(Cl)c3)o2)cc1	%	76
N[C@@H]1CCC[C@H]1NCCCCN1C(=O)c2cccc3cccc(c23)C1=O	%	76.6
COc1ccc(OC)c(Nc2nc3nonc3nc2Nc2cc(OC)ccc2OC)c1	%	36.1
Cc1c2c(cn1Cc1ccccc1)CCc1cn(C)nc1-2	%	107
O=c1[nH]c(=O)n(C2CC(O)C(CO)O2)cc1CO (stereo not drawn)	%	90.5
Clc1ccc(/C=C/c2nc(Nc3ccc(Cl)cc3)c3ccccc3n2)cc1	%	121
O=C(/C=C/C12c3ccccc3C(c3ccccc31)C1C(=O)N(c3ccccc3)C(=O)C12)c1ccccc1 (stereo not drawn)	%	20.8
COC(=O)CCCNC(=O)C(=O)c1c(O)c(O)c(C(C)C)c2cc(C)c(-c3c(C)cc4c(C(C)C)c(O)c(O)c(C(=O)C(=O)NCCCC(=O)OC)c4c3O)c(O)c12	%	7.48
CCCCS(=O)(=O)Oc1ccc(-c2nc(C)c(C(=O)OCC)s2)cc1C=O	%	68.8
NC(=O)CC1(O)C=C(Br)C(=O)C(Br)=C1	%	17.1
C=CCO[C@H]1CO[C@H]2[C@@H]1OC[C@@H]2Oc1ccc(Nc2ccnc(Nc3ccc(O[C@H]4CO[C@H]5[C@@H]4OC[C@@H]5OCC=C)c(Cl)c3)n2)cc1Cl	%	-54.4
COc1ccc(/C=C2\COc3ccc(O)c(O)c3C2=O)c(OC)c1	%	22.5
Cc1cc(=O)[nH]c(N/N=C/c2cc(Br)ccc2O)n1	%	45
CC(C)OCCCNCC(=O)Nc1ccc(S(=O)(=O)c2ccc(NC(=O)CNCCCOC(C)C)cc2)cc1	%	93.9
COc1ccc(C2CC(c3ccccc3)=NN2c2nc(C)c(C(C)=O)s2)cc1 (stereo not drawn)	%	110
CC(C)(C)Nc1c(-c2c3ccccc3cc3ccccc23)nc2ccccn12	%	76
Nc1nc(Nc2ccc(Cl)cc2)nn1S(=O)(=O)c1ccc(-c2ccc(F)cc2)cc1	%	97.3
COc1ccc(-c2cc(-c3cc(OC)ccc3OC)[nH]c(=O)c2C#N)cc1	%	84.9
N#Cc1c(NC(=O)c2ccccc2I)sc2c1CCCC2	%	106
Clc1ccc2c(NCCCN3CCN(c4nc(-n5ccnc5)nc5ccccc45)CC3)ccnc2c1	%	122
NC(N)=N/N=C(/c1ccccc1)c1ccc(N)cc1	%	135
O=C(CC12CC3CC(CC(C3)C1)C2)NCCOCCOCCNC(=O)c1cc2c(o1)C(=O)c1ccccc1C2=O	%	-27.1
COc1cc(C2CC(c3ccc(Nc4nc(Nc5ccc(F)cc5)nc(Nc5ccc(Cl)cc5)n4)cc3)=NN2C(C)=O)cc(OC)c1OC (stereo not drawn)	%	60.7
O=C1CSC(c2ccccc2)N1c1ccccc1 (stereo not drawn)	%	110
COc1ccc(/C=C2\COc3ccc(O)cc3C2=O)cc1OC	%	93.1
CCn1c(Sc2nnc(NC(C)=O)s2)nc2c1c(=O)n(C)c(=O)n2C	%	103
CCNCCNc1cc(C2CCCC2)c(C#N)c2nc3ccccc3n12	%	-24.7
N#Cc1c(NC(=O)c2ccc(Br)cc2)sc2c1CCCC2	%	72.7
CCC(O)(C(c1ccccc1)c1ccccn1)C(c1ccccc1)c1ccccn1 (stereo not drawn)	%	107
Cc1ccc(S(=O)(=O)N(CC[C@@H]2C[C@H]2c2cc3ccccc3o2)C(=O)NC2CCCCC2)cc1	%	106
C=C1c2c(C)nn(-c3ccc(O)cc3)c2N(C)C23C[C@@H]1C1(C)c4c(C)nn(-c5ccc(O)cc5)c4N(C)C(C)(C[C@H]12)C3 (stereo partly drawn)	%	57.3
O=S(=O)(Nc1ccsc1-c1nc(-c2ccccc2)no1)c1cc(Cl)cc(Cl)c1	%	102
COc1ccc(-c2nc3ncccn3c2/C=C/C(=O)c2cc(OC)c(OC)c(OC)c2)cc1	%	15.5
[2H]c1nc(Nc2ncc(F)c(-c3cc(F)c4nc(C)n(C(C)C)c4c3)n2)c([2H])c([2H])c1CN1CCN(C([2H])([2H])C([2H])([2H])[2H])CC1	%	21.6
